system tested: KRas G12D mutant protein (Homo sapiens (Human), UniProt P01116, G12D)
Sequence (P01116-2 other isoform, or with tags, fused parts or gaps G12D): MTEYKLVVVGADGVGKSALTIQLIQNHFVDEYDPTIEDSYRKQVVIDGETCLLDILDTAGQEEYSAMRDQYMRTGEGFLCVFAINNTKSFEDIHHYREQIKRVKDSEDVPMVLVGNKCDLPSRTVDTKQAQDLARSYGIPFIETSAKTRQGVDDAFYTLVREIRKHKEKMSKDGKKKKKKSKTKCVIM
test summary: Ras GTP binding domain inhibition assay (labeled GTP)
conditions used: 20 μM compound; read-out: % Inhibition at 20 μM KRas G12D
Assignment: determine reported inhibition at 20 µM for the given compounds.

O=C(c1csc2c(O)nc(-c3ccccn3)nc12)N1CCNC(c2cn[nH]c2)C1 (stereo not shown) [drawing 2858] on KRas G12D mutant protein (Homo sapiens (Human), UniProt P01116, G12D) gives inhibition at 20 µM = 25 to 50%

NC(=O)Cn1cnc2nc(-c3ccccn3)nc(N3CCOCC3)c21 [drawing 2825] on KRas G12D mutant protein (Homo sapiens (Human), UniProt P01116, G12D) gives inhibition at 20 µM = 25 to 50%

CN(C)Cc1ccc(F)c(-c2csc3c(O)nc(-c4ccccn4)nc23)c1 [drawing 2901] on KRas G12D mutant protein (Homo sapiens (Human), UniProt P01116, G12D) gives inhibition at 20 µM = 51 to 75%

O=C(c1csc2c(O)nc(-c3ccccn3)nc12)N1CC2CC1CN2c1ccccc1 (stereo not shown) [drawing 2838] on KRas G12D mutant protein (Homo sapiens (Human), UniProt P01116, G12D) gives inhibition at 20 µM = 51 to 75%

Cn1nnc2ccc(-c3csc4c(O)nc(-c5ccccn5)nc34)cc21 [drawing 2861] on KRas G12D mutant protein (Homo sapiens (Human), UniProt P01116, G12D) gives inhibition at 20 µM = 51 to 75%

Oc1nc(-c2ccccn2)nc2c(-c3ccccc3C(F)F)csc12 [drawing 2883] on KRas G12D mutant protein (Homo sapiens (Human), UniProt P01116, G12D) gives inhibition at 20 µM = 51 to 75%

Please give inhibition at 20 µM, item by item, for the list that follows.
1. COc1ccc(CCNC(=O)c2csc3nc(-c4ccccn4)nc(N4CCN(C)CC4)c23)cn1
2. Oc1nc(-c2ccccn2)nc2c(-c3ccc(OC(F)F)cc3F)csc12 [drawing 2876]
3. Cc1cc2nc(-c3ccccn3)nc(N)c2s1 [drawing 2836]
4. Oc1nc(-c2ccccn2)nc2c(-c3ccc4c(c3)CCCO4)csc12 [drawing 2902]
5. O=C(c1cc2nc(-c3ccccn3)nc(O)c2s1)N1CCN(c2ccccc2)CC1 [drawing 2841]
6. Cc1cnccc1-c1csc2c(O)nc(-c3ccccn3)nc12 [drawing 2888]
7. O=S1(=O)CCN(Cc2cccc(-c3csc4c(O)nc(-c5ccccn5)nc34)c2)CC1 [drawing 2864]
8. Oc1nc(-c2ccccn2)nc2c(-c3ccccc3F)csc12 [drawing 2868]

1: 25 to 50%; 2: 51 to 75%; 3: 51 to 75%; 4: 51 to 75%; 5: 51 to 75%; 6: 51 to 75%; 7: 51 to 75%; 8: 51 to 75%

Please give inhibition at 20 µM, item by item, for the list that follows.
1. COc1cccc(-c2csc3c(O)nc(-c4ccccn4)nc23)c1 [drawing 2872]
2. O=C(OCCc1cccnc1)N1CCCc2c(O)nc(-c3ccccn3)nc21
3. O=C(COCc1cccnc1)Nc1nc(-c2ccccn2)nc2sccc12 [drawing 2829]
4. Oc1nc(-c2ccccn2)nc2c(-c3cccc(C(F)(F)F)c3)csc12 [drawing 2873]
5. CC1(O)CCN(C(=O)c2csc3c(O)nc(-c4ccccn4)nc23)CC1 [drawing 2683]
6. COc1ccc(-c2csc3c(O)nc(-c4ccccn4)nc23)c(C)c1 [drawing 2881]
7. COc1ccnc(-c2nc(O)c3ccsc3n2)c1 [drawing 2708]

1: 76 to 100%; 2: 51 to 75%; 3: 51 to 75%; 4: 51 to 75%; 5: 51 to 75%; 6: 51 to 75%; 7: 51 to 75%

Please give inhibition at 20 µM, item by item, for the list that follows.
1. Oc1nc(-c2ccccn2)nc2scc(Br)c12 [drawing 2703]
2. O=C(OCCc1ccccc1)N1CCCc2c(O)nc(-c3ccccn3)nc21 [drawing 2653]

["51 to 75%", "51 to 75%"]

Please give inhibition at 20 µM, item by item, for the list that follows.
1. Oc1nc(-c2ccccn2)nc2c(-c3cc(F)cc(F)c3)csc12 [drawing 2900]
2. Nc1nc(-c2ccccn2)nc2ccsc12 [drawing 2834]
3. CN(C)Cc1ccc(-c2csc3c(O)nc(-c4ccccn4)nc23)cc1F [drawing 2845]
4. Oc1nc(-c2ccccn2)nc2c(-c3cc(F)ccc3OC(F)F)csc12 [drawing 2860]
5. O=C(c1csc2c(O)nc(-c3ccccn3)nc12)N(CCO)CCOCCO [drawing 2687]
6. O=C(c1ccc(=O)[nH]n1)N1CCCc2c(O)nc(-c3ccccn3)nc21 [drawing 2646]
7. O=C(c1csc2c(O)nc(-c3ccccn3)nc12)N1CCNC(c2ccc(O)cc2)C1 (stereo not shown) [drawing 2808]

["51 to 75%", "1 to 25%", "76 to 100%", "51 to 75%", "51 to 75%", "51 to 75%", "51 to 75%"]
